Can you tell me Relative activity of the enzyme on substrate for the items I'm about to list?
- assayed-system: C. versicolor P2O (Trametes versicolor)
- Construct: endogenous in cells; host or cells: Coriolus versicolor, own culture (NRRL 15152 / CMCC 0748, selected high producer; native enzyme, purified)
- test-summary: Relative activities of purified C. versicolor P2O on pyranose substrates
- Type: biochemical
- measurement-context: 1% (w/v) substrate concentration; D-glucose = 100
Answers are plain numbers.

given_smiles=O=C[C@H](O)[C@@H](O)[C@H](O)CO test_result=41

Batch lookup, Relative activity of the enzyme on substrate per entry.
1. O=C1O[C@H](CO)[C@@H](O)[C@H](O)[C@H]1O
2. O=C(CO)[C@@H](O)[C@H](O)[C@@H](O)CO
3. O=C[C@H](O)[C@@H](O)[C@H](O)[C@H](O)CO

1: 6; 2: 74; 3: 100
